test system: BRK; construct: gene PTK6; details: concentration: 1 μM, replicates: in singlicate; n = 1;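 note: KINOMEscan kinase panel screen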
Catalogue of compounds with associated %Inh
Give just the number in %; leave the unit off.

# compound, experimental target, readout type, assay value
data = [
    ("Cl.Cl.NC(CNC(=O)c1cc(Br)c(-c2ccnc3[nH]ccc23)s1)c1ccccc1 (centres unmarked)", "BRK", "%Inh", 0),
    ("O=C(Nc1n[nH]c2cc(-c3cccs3)ccc12)C1CC1", "BRK", "%Inh", 0),
    ("Cn1cc(-c2cnc(N)c3c(-c4ccc5c(c4)CCN5C(=O)Cc4ccccc4)csc23)cn1", "BRK", "%Inh", 92.2),
    ("CN(C)c1ncnc2nc[nH]c12", "BRK", "%Inh", 0),
]

%Inh for `Cc1cc(-c2ccnc(Nc3cccc(C#N)c3)n2)cc(C)c1O` ?
25

---

test system: PIM1; settings: concentration: 1 μM, replicates: in singlicate; n = 1
Catalogue of compounds with associated %Inh
Give just the number in %; leave the unit off.

# compound, experimental target, endpoint unit, %Inh
data = [
    ("CCOc1nccc(-c2c(-c3ccc(F)cc3)ncn2C2CCNCC2)n1", "PIM1", "%", 0),
]

--- query ---
%Inh for `Cc1cccc(Nc2nc(NCCN)ncc2C(N)=O)c1` ?
28

---

Catalogue of compounds with associated %Inh
tested on: BMPR2; conditions: concentration: 1 μM, replicates: in singlicate; n = 1
Field note: include the unit after the figure.

Completed entries (count: 2):
# record smiles, assay value
rows = [
    ("CN(c1ccc2c(c1)nc(NCc1ccccc1)n2C)c1ccnc(Nc2ccc(CS(C)(=O)=O)cc2)n1.Cl", "22%"),
    ("CCNc1nccc(-c2c(-c3ccc(F)cc3)ncn2C2CCN(C)CC2)n1", "0%"),
]

--- query ---
%Inh for `Cn1cc(-c2ccc3c(c2)CCN3C(=O)Cc2cc(F)cc(C(F)(F)F)c2)c2c(N)ncnc21` ?
0%

---

tested on: FYN; conditions: concentration: 1 μM, replicates: in singlicate; n = 1
readout type: %Inh (%)
Give just the number in %; leave the unit off.

# molecule, endpoint unit, %Inh
measured = [
    ("Fc1cc(Cl)ccc1Nc1ccnc2cc(-c3ccc(CN4CCSCC4)o3)ccc12 [GW560106]", "%", 90.5),
]

%Inh for `CCNc1nccc(-c2c(-c3ccc(F)cc3)ncn2C2CCN(C)CC2)n1` ?
0

%Inh for `N#CC1(c2cccc(C(=O)Nc3cccc(Oc4ccc5nc(NC(=O)C6CC6)sc5n4)c3)c2)CC1` ?
92

%Inh for N#Cc1cnc2cc(-c3cnc(CNCCN4CCOCC4)s3)ccc2c1Nc1ccc(Oc2ccccc2)cc1 [GW664114] ?
93.2

%Inh for COc1cccc(CC(=O)N2CCc3cc(-c4cn(C)c5ncnc(N)c45)ccc32)c1 [GSK2608899] ?
9

%Inh for Cc1ccc(O)cc1Nc1ccnc2ccc(C(C)(C)C)cc12 [GW856805] ?
96.5

%Inh for Cc1ccc(NC(=O)c2ccc(Cl)c(Cl)c2)cc1-c1ccc(C(=O)Nc2ccncc2)cc1 [GSK1398460] ?
31

---

test system: CSF1R; conditions: concentration: 1 μM, replicates: in singlicate; n = 1
Catalogue of compounds with associated %Inh
Give just the number in %; leave the unit off.

Completed entries (count: 2):
# compound, experimental target, readout type, endpoint unit, assay value
data = [
    ("CCNc1nccc(-c2c(-c3ccc(F)cc3)ncn2C2CCN(C)CC2)n1", "CSF1R", "%Inh", "%", 0),
    ("CN(C)c1ncnc2nc[nH]c12", "CSF1R", "%Inh", "%", 6),
]

%Inh for `CN1CCN(Cc2ccc(NC(=O)Nc3ccc(N(C)c4ccnc(Nc5ccc(CS(C)(=O)=O)cc5)n4)cc3)cc2)CC1.Cl` ?
100

%Inh for `COc1cccc2c(-c3ccncc3)c(-c3ccc(F)cc3)nn12` ?
0

%Inh for `COC(=O)Nc1nc2cc(Oc3ccc(NC(=O)Nc4cccc(SC)c4)cc3)ccc2[nH]1.Cl` ?
99.6

%Inh for `O=C(O)C(F)(F)F.O=c1[nH]ccc2nc(N[C@@H]3CCNC3)nc(Nc3cc(Cl)cc(Cl)c3)c12` ?
69

%Inh for `O=C(Nc1n[nH]c2nc(-c3ccccc3)ccc12)C1CC1` ?
0

%Inh for `O=C(Nc1c(F)cccc1F)c1cc(C(=O)c2ccccc2F)c[nH]1` ?
1
